Tested on: EGFR vIII Ba/F3
EXPERIMENT: CellTiter-Glo cell viability, EGFR vIII Ba/F3
Type: cell-based
CONDITIONS: Mus musculus, BaF3, 72 h, read-out: EGFR vIII Ba/F3 CTG IC50 /
RECORDED_ENDPOINT: IC50

Worked set:
C=CC(=O)Nc1cc(-c2c(-c3cnn(C)c3)[nH]c3ncc(C(=O)OC(C)C)cc23)ccc1C [Example 1, 2,2,2-trifluoroacetate] = 100 to 500 nM
C=CC(=O)Nc1cc(-c2c(-c3cnn(C)c3)[nH]c3ncc(-c4cnn(C)c4)cc23)ccc1C [Example 26, 2,2,2-trifluoroacetate] = ≤ 50 nM

Lookup: Give EGFR vIII Ba/F3 IC50 for C=CC(=O)Nc1cc(-c2c(-c3cnn(C)c3)[nH]c3ncc(-c4cnn(CCOC)c4)cc23)ccc1C [Example 33]
Found: ≤ 50 nM

Lookup: Then this compound: C=CC(=O)Nc1cc(-c2c(-c3cnn(CCN4CCOCC4)c3)[nH]c3ncc(C(=O)OC(C)C)c(C)c23)ccc1C [Example 17]
Found: 100 to 500 nM

Lookup: Again, but for C=CC(=O)Nc1cc(-c2c(-c3cnn(C)c3)[nH]c3ncc(-c4cnn(CCN(C)C)c4)cc23)ccc1C [Example 34]
Found: 1000 to 10000 nM
